Catalogue of composite z-score readings, one per entry.
Biological target: Neurogenic locus notch homolog protein 3 (Homo sapiens) (UniProt Q9UM47)
Sequence (Q9UM47 whole entry, looked up): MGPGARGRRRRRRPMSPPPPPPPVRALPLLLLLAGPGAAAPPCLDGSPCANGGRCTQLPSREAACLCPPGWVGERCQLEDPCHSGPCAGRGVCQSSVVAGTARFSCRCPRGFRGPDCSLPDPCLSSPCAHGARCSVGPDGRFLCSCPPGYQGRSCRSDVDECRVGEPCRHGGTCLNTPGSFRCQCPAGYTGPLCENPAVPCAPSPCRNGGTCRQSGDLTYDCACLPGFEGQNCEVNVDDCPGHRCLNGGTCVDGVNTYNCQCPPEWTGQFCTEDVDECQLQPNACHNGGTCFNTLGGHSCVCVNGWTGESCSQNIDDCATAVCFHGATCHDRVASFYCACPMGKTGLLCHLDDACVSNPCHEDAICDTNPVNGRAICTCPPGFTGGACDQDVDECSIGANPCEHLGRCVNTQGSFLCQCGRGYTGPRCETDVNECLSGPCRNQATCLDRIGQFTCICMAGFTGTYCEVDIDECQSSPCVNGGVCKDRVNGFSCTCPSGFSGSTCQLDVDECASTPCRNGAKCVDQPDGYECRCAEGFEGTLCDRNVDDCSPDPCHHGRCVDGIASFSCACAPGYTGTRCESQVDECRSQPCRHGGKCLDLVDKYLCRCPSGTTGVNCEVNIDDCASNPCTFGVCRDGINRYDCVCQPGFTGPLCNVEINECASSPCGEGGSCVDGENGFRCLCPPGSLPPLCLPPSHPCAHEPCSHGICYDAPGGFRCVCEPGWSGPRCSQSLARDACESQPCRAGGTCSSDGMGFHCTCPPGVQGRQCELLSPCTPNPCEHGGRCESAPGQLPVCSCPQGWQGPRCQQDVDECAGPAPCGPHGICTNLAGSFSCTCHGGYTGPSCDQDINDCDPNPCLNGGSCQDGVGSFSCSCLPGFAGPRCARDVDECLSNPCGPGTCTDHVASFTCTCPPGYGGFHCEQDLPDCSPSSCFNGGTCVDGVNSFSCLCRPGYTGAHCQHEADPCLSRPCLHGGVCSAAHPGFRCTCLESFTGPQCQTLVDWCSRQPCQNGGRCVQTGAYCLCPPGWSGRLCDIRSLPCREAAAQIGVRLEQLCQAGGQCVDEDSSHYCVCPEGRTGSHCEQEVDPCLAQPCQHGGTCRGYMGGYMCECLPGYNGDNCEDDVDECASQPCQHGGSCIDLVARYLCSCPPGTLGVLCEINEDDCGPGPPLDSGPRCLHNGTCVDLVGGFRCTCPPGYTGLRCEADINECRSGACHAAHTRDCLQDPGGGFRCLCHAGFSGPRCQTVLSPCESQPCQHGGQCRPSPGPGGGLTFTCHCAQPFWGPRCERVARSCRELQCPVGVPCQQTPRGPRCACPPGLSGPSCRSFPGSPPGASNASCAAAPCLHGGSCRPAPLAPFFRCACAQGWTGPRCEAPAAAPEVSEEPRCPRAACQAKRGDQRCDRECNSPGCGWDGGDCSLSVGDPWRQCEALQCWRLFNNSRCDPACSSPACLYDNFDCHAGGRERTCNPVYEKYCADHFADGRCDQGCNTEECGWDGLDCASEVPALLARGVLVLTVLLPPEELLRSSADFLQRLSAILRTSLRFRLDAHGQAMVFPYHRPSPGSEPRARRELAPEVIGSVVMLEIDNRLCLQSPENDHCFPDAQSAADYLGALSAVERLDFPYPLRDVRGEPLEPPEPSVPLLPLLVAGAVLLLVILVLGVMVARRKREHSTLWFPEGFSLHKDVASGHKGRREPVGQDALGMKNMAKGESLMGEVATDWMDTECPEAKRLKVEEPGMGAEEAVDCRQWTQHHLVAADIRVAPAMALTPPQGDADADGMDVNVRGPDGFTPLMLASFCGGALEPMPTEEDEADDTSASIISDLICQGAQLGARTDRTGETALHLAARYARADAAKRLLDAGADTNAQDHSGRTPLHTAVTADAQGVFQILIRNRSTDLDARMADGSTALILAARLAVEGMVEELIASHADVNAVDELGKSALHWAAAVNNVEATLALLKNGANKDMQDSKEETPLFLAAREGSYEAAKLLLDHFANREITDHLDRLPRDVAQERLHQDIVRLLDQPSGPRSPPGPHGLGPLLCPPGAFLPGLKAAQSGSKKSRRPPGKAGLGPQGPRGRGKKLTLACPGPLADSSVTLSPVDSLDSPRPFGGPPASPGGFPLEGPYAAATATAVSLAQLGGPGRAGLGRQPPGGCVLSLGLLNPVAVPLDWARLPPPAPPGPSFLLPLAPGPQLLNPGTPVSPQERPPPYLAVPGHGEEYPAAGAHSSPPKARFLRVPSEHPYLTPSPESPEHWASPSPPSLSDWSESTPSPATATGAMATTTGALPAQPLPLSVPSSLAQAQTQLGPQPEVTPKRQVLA
Experiment: NOTCH3 binders on small-molecule microarray, primary screen, biochemical, 635/667 nm fluorescence (AID 1096)
Conditions: NOTCH3 binding, 635 nm fluorescence, higher = more signal
Just the number.

Given CC(C)(C)OC(=O)CC[C@]1(C(=O)N2CCCCC2)N=C(c2ccc(OCCCO)cc2)O[C@H]1c1ccccc1 , respond with its composite z-score.
1.15

Given CO[C@@H]1COC(=O)[C@H](COCc2ccccc2)NC(=O)CC=C[C@@H](C)[C@H](OC)COC(=O)[C@H](COCc2ccccc2)NC(=O)CC=C[C@H]1C , respond with its composite z-score.
-0.511

Given COc1cc2c(cc1OC)CN(C(=O)[C@H]1[C@@H]3C(=O)O[C@@H](c4ccccc4)[C@@H](c4ccccc4)N3[C@@H](c3ccccc3OCCO)[C@]13C(=O)Nc1ccc(C#CC4(O)CCCCCC4)cc13)CC2 , respond with its composite z-score.
1.11

Given CCCC=C(CCC)[C@@H](NS(=O)(=O)c1ccc(-c2ccccc2)cc1)c1ccc(C(=O)OC)cc1 , respond with its composite z-score.
-0.616

Given C=CC[C@@]12N=C(c3ccc(OCCCO)cc3)O[C@@H]1c1ccccc1CN(Cc1ccccc1)C2=O , respond with its composite z-score.
0.7

Given CCOC(=O)[C@H]1C/C=C/C[C@H](C(=O)OCC)C(=O)O[C@H]2[C@@H](OC)O[C@H](CO)[C@@H](OC(=O)Nc3ccc(Br)cc3)[C@@H]2OC1=O , respond with its composite z-score.
0.869

Given CCOC(=O)C[C@H]1[C@H](OC(=O)Cc2ccc3c(c2)OCO3)[C@@H](NC(=O)CC(C)C)c2cc(OCCCO)ccc2N1C(=O)c1ccccc1 , respond with its composite z-score.
0.417

Given CCCC=C(CCC)[C@@H](NS(=O)(=O)c1ccc(C(F)(F)F)cc1)c1ccc(-c2ccccc2)cc1 , respond with its composite z-score.
0.762

Given CC(=O)NCCCC[C@@H]1NC(=O)[C@H]2C[C@@H](C(=O)NCCCCCCN(C)C)[C@@H](c3ccc(O)cc3)N2C1=O , respond with its composite z-score.
0.989

Given COC(=O)C1=CC(c2ccc(CO)cc2)=CC(C2CC2)N(Cc2sc3ccccc3c2Cl)C=C1C(=O)OC (centres undefined) , respond with its composite z-score.
1.1

Given Cc1ccc(S[C@]2(C(=O)NC(C)C)CC(=O)N(C3Cc4ccccc4C3)[C@@H]2c2ccc(CO)cc2)cc1 , respond with its composite z-score.
0.506

Given C=CCc1cccc([C@@H]2[C@@H](C)CC[C@H]3C(=O)N4[C@H](c5cccc(CC=C)c5)[C@@H](C)CC[C@H]4C(=O)N23)c1 , respond with its composite z-score.
0.671

Given CO[C@H]1COC(=O)[C@@H](C)NC(=O)CC=C[C@@H](C)[C@H](OC)COC(=O)CC=C[C@@H]1C , respond with its composite z-score.
0.134

###

Biological target: Neurogenic locus notch homolog protein 2 (Homo sapiens) (UniProt Q04721)
Sequence (Q04721 whole entry, looked up): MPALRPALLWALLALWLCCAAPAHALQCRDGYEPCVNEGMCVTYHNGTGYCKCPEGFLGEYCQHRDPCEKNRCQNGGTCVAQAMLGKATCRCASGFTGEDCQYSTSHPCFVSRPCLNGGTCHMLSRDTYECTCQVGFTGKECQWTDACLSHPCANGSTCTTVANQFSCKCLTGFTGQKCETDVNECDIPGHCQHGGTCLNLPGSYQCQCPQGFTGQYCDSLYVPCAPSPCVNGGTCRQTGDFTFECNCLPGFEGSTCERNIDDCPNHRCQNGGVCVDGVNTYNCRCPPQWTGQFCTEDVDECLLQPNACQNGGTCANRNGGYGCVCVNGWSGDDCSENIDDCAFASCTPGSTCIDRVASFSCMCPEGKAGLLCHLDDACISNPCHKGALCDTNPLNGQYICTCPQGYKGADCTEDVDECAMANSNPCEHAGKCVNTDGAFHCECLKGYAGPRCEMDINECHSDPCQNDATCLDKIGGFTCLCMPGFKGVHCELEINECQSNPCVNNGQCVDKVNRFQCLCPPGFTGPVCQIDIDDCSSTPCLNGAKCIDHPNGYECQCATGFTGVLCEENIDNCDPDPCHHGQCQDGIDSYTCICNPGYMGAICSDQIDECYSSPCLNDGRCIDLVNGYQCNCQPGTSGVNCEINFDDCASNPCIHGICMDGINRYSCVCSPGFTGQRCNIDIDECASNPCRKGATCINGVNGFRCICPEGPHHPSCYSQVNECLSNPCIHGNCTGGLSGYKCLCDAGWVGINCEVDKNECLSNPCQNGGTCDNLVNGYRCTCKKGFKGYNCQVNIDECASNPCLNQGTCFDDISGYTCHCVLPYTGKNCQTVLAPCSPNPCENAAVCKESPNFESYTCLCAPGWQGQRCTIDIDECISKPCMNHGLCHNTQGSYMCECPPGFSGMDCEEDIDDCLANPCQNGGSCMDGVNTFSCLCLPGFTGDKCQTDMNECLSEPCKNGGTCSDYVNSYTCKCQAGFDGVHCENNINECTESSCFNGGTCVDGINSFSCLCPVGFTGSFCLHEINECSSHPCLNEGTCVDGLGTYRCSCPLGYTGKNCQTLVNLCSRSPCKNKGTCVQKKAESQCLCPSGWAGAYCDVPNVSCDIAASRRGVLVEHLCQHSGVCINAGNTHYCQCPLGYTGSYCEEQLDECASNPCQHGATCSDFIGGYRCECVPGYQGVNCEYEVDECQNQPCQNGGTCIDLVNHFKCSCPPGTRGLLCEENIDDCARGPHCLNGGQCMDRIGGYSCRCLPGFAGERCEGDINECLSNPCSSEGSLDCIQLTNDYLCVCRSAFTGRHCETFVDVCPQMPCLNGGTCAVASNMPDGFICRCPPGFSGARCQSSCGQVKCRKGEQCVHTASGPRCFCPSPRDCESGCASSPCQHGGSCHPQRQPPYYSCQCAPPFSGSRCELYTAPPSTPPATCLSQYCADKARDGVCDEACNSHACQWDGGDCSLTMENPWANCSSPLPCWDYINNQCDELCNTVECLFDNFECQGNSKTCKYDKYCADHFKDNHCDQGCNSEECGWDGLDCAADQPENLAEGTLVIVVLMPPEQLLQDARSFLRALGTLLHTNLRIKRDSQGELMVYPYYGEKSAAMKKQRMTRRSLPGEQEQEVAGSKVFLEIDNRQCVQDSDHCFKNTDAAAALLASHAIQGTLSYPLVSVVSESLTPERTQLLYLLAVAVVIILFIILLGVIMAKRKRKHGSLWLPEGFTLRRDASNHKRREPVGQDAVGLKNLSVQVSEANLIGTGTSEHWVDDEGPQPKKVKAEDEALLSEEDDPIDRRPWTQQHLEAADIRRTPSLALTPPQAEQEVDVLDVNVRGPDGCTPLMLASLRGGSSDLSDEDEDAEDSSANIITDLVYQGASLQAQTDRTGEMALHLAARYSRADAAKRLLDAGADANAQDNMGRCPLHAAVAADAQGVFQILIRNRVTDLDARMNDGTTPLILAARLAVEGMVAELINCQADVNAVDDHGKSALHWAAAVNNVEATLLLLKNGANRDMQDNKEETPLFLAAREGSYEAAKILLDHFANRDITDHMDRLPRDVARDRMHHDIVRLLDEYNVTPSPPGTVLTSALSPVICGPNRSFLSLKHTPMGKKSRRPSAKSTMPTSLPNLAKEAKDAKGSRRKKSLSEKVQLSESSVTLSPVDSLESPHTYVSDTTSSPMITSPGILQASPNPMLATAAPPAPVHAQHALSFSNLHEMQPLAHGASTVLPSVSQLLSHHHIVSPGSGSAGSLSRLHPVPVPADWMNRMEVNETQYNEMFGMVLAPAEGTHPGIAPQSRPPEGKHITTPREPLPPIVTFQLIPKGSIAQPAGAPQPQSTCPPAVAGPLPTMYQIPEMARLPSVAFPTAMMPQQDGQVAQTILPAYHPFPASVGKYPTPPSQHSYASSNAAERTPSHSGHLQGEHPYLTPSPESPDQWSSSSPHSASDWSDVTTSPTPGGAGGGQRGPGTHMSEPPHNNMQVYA
Test: Notch2 binders on small-molecule microarrays, primary screen, biochemical, small-molecule microarray, 635 nm fluorescence, stem cell growth factors (AID 1073)
Details: Notch2 binding, higher = more signal
Catalogue of composite z-score readings, one per entry.
Just the number.

# example entries with known answers
MOLECULE: COC(=O)c1ccc(C#CC(NP(=O)(c2ccccc2)c2ccccc2)c2ccccc2)cc1 (stereo not given)
STUDY TARGET: Neurogenic locus notch homolog protein 2 (Homo sapiens) (UniProt Q04721)
composite z-score: 1.87
--
MOLECULE: CC(C)CN1C(=O)[C@@]2(Cc3ccccc31)c1ccccc1C(=O)N(C1CCCCC1)[C@H]2c1ccc(CO)cc1
STUDY TARGET: Neurogenic locus notch homolog protein 2 (Homo sapiens) (UniProt Q04721)
composite z-score: -1.08
--
MOLECULE: CC(=O)Nc1ccc([C@H]2[C@H](C)CC[C@H]3C(=O)N4[C@@H](CC[C@@H](C)[C@@H]4c4ccc(NC(C)=O)cc4)C(=O)N32)cc1
STUDY TARGET: Neurogenic locus notch homolog protein 2 (Homo sapiens) (UniProt Q04721)
composite z-score: 0.68
--
MOLECULE: CO[C@H]1COC(=O)CC=C[C@H](C)COC(=O)[C@@H](OCc2ccccc2)C=C[C@@H]1C
STUDY TARGET: Neurogenic locus notch homolog protein 2 (Homo sapiens) (UniProt Q04721)
composite z-score: -1.49
--
MOLECULE: CC(C)NC(=O)[C@@]1(Cc2ccccc2I)c2ccccc2C(=O)N(C2CCCCC2)[C@H]1c1ccc(CO)cc1
STUDY TARGET: Neurogenic locus notch homolog protein 2 (Homo sapiens) (UniProt Q04721)
composite z-score: 1.18
--
MOLECULE: Cc1ccc(N2C(=O)c3ccccc3[C@@H](C(=O)NCc3ccccc3)[C@@H]2c2ccc(CO)cc2)nc1
STUDY TARGET: Neurogenic locus notch homolog protein 2 (Homo sapiens) (UniProt Q04721)
composite z-score: -0.272

Given COc1ccc([C@H]2C[C@H]3C(Br)=C[C@]2(OC)C(=O)[C@]32CO2)cc1 , respond with its composite z-score.
-0.203

Given O=C1O[C@H](c2ccccc2)[C@H](c2ccccc2)N2[C@H]1[C@@H](C(=O)Nc1nc3ccccc3s1)[C@]1(C(=O)Nc3ccc(C#CC4=CCCCC4)cc31)[C@H]2c1ccccc1OCCO , respond with its composite z-score.
1.16

Given O=C1C[C@@](C(=O)NCCN2CCOCC2)(c2ccc([N+](=O)[O-])cc2)[C@@H](c2ccc(CO)cc2)N1C1CCCCC1 , respond with its composite z-score.
0.576

Given CCOC(=O)C1=CCC(c2cccc3ccccc23)N(S(=O)(=O)c2ccc(C)cc2)C1 (stereo not given) , respond with its composite z-score.
1.46

FYI, the data here is from PubChem BioAssay.
